System: Streptococcus pneumoniae (ATCC6305)
PROCEDURE DETAILS: Microtitre plate assay, IC90 determination, SPN 6305
Type: cell-based
MEASUREMENT PARAMETERS: Streptococcus pneumoniae ATCC6305; 90% inhibitory concentration for bacterial growth; resazurin
The entries below are paired with their reported IC90 (μg/ml) SPN 6305.
Numbers only here, please. The scale is µg/mL.

Reference set, count: 5
COc1nc2ccc(Br)cc2cc1C(=C(CCN1CCN(C)CC1)c1ccccc1)c1ccccc1 (mixture of isomers) [Compound 44]; 10.82
COc1nc2ccc(Br)cc2cc1C(=C(CCN(C)C)c1ccccc1)c1ccccc1 [Compound 36]; 5.47
COc1nc2ccc(-c3ccccc3)cc2cc1C(=C(CCn1ccnc1)c1ccccc1)c1ccccc1 [Compound 46]; 8.05
COc1nc2ccc(-c3cccnc3)cc2cc1C(=C(CCN(C)C)c1cccc2ccccc12)c1ccccc1 [Compound 41]; 9.53
COc1nc2ccc(Br)cc2cc1C(=C(CCN1CCOCC1)c1ccccc1)c1ccccc1 (mixture of isomers) [Compound 43]; 8.39

IC90 (μg/ml) SPN 6305 reading for COc1nc2ccc(Br)cc2cc1C(=C(CCN1CCN(C)CC1)c1ccccc1)c1ccccc1 (mixture of isomers) [Compound 45] : 10.82

IC90 (μg/ml) SPN 6305 reading for COc1ccc2nc(OC)c(C(C(=CCN(C)C)c3ccccc3)c3ccccc3)cc2c1 (racemic) [Compound 31] : 7.8

====

Test system: Staphylococcus aureus (ATCC29213)
PROCEDURE DETAILS: Microtitre plate assay, IC90 determination, STA 29213
Format: cell-based
MEASUREMENT PARAMETERS: Staphylococcus aureus ATCC29213; 90% inhibitory concentration for bacterial growth; resazurin; read-out: IC90 (μg/ml) STA 29213
ASSAY ENDPOINT: IC90 (µg/mL)
Numbers only here, please. The scale is µg/mL.

IC90 reading for COc1nc2ccc(Br)cc2cc1C(/C(=C\CCCN1CCCN(C)CC1)c1ccc2ccccc2c1)c1ccccc1 (stereo not drawn) : 22.5

IC90 reading for COc1nc2ccc(Br)cc2cc1C(/C(=C/C#N)CCCCN1CC2CC1CN2Cc1ccccc1)c1ccccc1 (stereo not drawn) : 1.97

IC90 reading for COc1nc2ccc(Br)cc2cc1C(/C(=C/CN(C)C)c1cccc2ccccc12)c1ccccc1 (stereo not drawn) : 4.79

====

Test system: M. Smegmatis ATCC607
PROCEDURE DETAILS: In-vitro anti-bacterial activity against strain M. smegmatis ATCC607
Format: cell-based
MEASUREMENT PARAMETERS: Mycolicibacterium smegmatis, ATCC607, 48 h, read-out: M. smegmatis IC90 (μg/ml), 90% inhibitory concentration for bacterial growth, Alamar Blue fluorescence
Description: Flat-bottom, sterile 96-well plastic microtiter plates were filled with 180 μl of sterile deionized water, supplemented with 0.25% BSA. […] At the end of incubation, two days after inoculation, the bacterial growth was quantitated fluorometrically. […] The fluorescence was read in a computer-controlled fluorometer (Cytofluor, Biosearch) at an excitation wavelength of 530 nm and an emission wavelength of 590 nm (gain 30).
The entries below are paired with their reported IC90.
Numbers only here, please. The scale is µg/mL.

Reference set, count: 4
Clc1ccc(/C(CCCCN2CCCCC2)=C(/c2ccccc2)c2cnc3ccccc3c2)cc1; 1.92
CSc1nc2ccc(Br)cc2cc1/C(=C(\CCN(C)C)c1ccccc1)c1ccccc1; 2
COc1nc2ccc(Br)cc2cc1C(/C(=C/C[N+](C)(C)C)c1cccc(F)c1)c1ccccc1 (stereo not shown); 1.85
COc1nc2ccc(-c3ccccc3)cc2cc1C(/C(=C/CN(C)C)c1ccccc1)c1ccccc1 (stereo not shown); 1.53

IC90 reading for Clc1ccc(/C(CCCCN2CCCCC2)=C(/c2ccc(Cl)cc2)c2cnc3ccccc3c2)cc1 : 1.63

Data provenance is patent US20100069366A1.
